B1: Gamma-crystallin D, residues 90 to 170; numbered along this chain, P07320 (parent)
chain: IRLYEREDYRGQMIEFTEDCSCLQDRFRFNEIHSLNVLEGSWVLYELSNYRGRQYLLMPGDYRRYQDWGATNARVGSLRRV

variants of: B1; assay: abundance fitness (aPCA) (normalised: wild type 0, dead -1); higher = more abundant; growth selection in yeast, the domain comes from the species named; settings: Homo sapiens
observation type: abundance fitness

| mutant name | reported |
| --- | --- |
| L56P | 0.124 |

q: Fill in the blank: the reported abundance fitness of D25G is ____.
a: 0.041

q: Another: D8H
a: -0.086

q: Another: F27D
a: 0.012

q: Another: T17I
a: 0.073

q: Another: F16P
a: 0.109

q: Another: M58Q
a: 0.066

q: Another: Q24A
a: -0.021

q: Another: N36Q
a: 0.051
